Each entry below carries its reported LD50 at 168 h.
- Test: in vivo
- Measurement Context: mouse, po, mice, deaths counted for 7 days
Structures can show the parent of a compound that is named as a salt.

Molecule	LD50 at 168 h
Cc1c(C(=O)N(C)C)oc2ccc(Cl)cc12 [Compound (G)]	> 1000 mg/kg
Cc1c(C(=O)N(C)C)oc2c(Cl)cccc12 [Compound (C)]	> 1000 mg/kg
COc1ccc2oc(C(=O)N(C)C)c(C)c2c1 [Compound (F)]	> 1000 mg/kg
COc1cc(C)nc(-n2nc(C)cc2OC)n1 [Mepirizole, mepirizole, reference compound]	500 to 1000 mg/kg
Cc1c(C(=O)N(C)C)oc2cccc(Cl)c12 [Compound (A)]	> 1000 mg/kg
Cc1c(C(=O)N(C)C)oc2ccc(F)cc12 [Compound (D)]	700 to 1000 mg/kg
CN(C)CCCOc1nn(Cc2ccccc2)c2ccccc12 [Benzydamine hydrochloride, benzydamine hydrochloride, reference compound]	500 to 1000 mg/kg
Cc1c(C(=O)N(C)C)oc2cc(Cl)ccc12 [Compound (B)]	500 to 1000 mg/kg
Cc1ccc2oc(C(=O)N(C)C)c(C)c2c1 [Compound (E)]	> 1000 mg/kg

====

- System: male dd mice
- Test: Muscle relaxant activity: traction test
- Format: in vivo
- Measurement Context: 150 mg/kg p.o., 2 hr, 5 mice per group

Compound	Endpoint Unit	Number of dropped mice, traction test
Cc1c(C(=O)N(C)C)oc2ccc(F)cc12 [Compound (D)]	mice	3
COc1cc(C)nc(-n2nc(C)cc2OC)n1 [Mepirizole, mepirizole, reference compound]	mice	0
Cc1ccc2oc(C(=O)N(C)C)c(C)c2c1 [Compound (E)]	mice	0
Cc1c(C(=O)N(C)C)oc2cccc(Cl)c12 [Compound (A)]	mice	3
COc1ccc2oc(C(=O)N(C)C)c(C)c2c1 [Compound (F)]	mice	0
Cc1c(C(=O)N(C)C)oc2cc(Cl)ccc12 [Compound (B)]	mice	5
Cc1c(C(=O)N(C)C)oc2ccc(Cl)cc12 [Compound (G)]	mice	3

====

Let's look at some compounds and their measured Number of dropped mice, slant test.
- Tested on: male dd mice
- Test: Muscle relaxant activity: slant test
- Type: in vivo
- Measurement Context: 150 mg/kg p.o., 3 hr, 5 mice per group
Assay Readout: Number of dropped mice, slant test (mice)

Compound	Observed
Cc1c(C(=O)N(C)C)oc2ccc(F)cc12	1
Cc1ccc2oc(C(=O)N(C)C)c(C)c2c1 [Compound (E)]	0
Cc1c(C(=O)N(C)C)oc2ccc(Cl)cc12	2
COc1cc(C)nc(-n2nc(C)cc2OC)n1 [Mepirizole, mepirizole, reference compound]	0

====

- Tested on: male dd mice
- Test: Muscle relaxant activity: slant test
- Assay type: in vivo
- Measurement Context: 300 mg/kg p.o., 2 hr, 5 mice per group
Where a name gives a salt, the structure may show the parent alone.
Listing of recorded Number of dropped mice, slant test by entry.

Compound	Endpoint Unit	Number of dropped mice, slant test
Cc1c(C(=O)N(C)C)oc2ccc(Cl)cc12	mice	5
Cc1ccc2oc(C(=O)N(C)C)c(C)c2c1 [Compound (E)]	mice	2
CN(C)CCCOc1nn(Cc2ccccc2)c2ccccc12 [Benzydamine hydrochloride, benzydamine hydrochloride, reference compound]	mice	2
Cc1c(C(=O)N(C)C)oc2cccc(Cl)c12	mice	3
Cc1c(C(=O)N(C)C)oc2cc(Cl)ccc12	mice	5
COc1ccc2oc(C(=O)N(C)C)c(C)c2c1	mice	2

====

- Test system: male dd mice
- Test: Anticonvulsant activity: maximal electroshock convulsion test
- Type: in vivo
- Measurement Context: Mus musculus, po, 1 h; 50 mg/kg p.o., 60 min after administration; read-out: Maximal electroshock convulsion test, inhibition ratio
Structures can show the parent of a compound that is named as a salt.
Listing of entries alongside the reported responders at 50 mg/kg.

Compound	Endpoint Unit	responders at 50 mg/kg
Cc1c(C(=O)N(C)C)oc2cccc(Cl)c12	%	30
Cc1c(C(=O)N(C)C)oc2cc(Cl)ccc12	%	40
Cc1c(C(=O)N(C)C)oc2ccc(Cl)cc12	%	0
Cc1c(C(=O)N(C)C)oc2ccc(F)cc12	%	10
Cc1c(C(=O)N(C)C)oc2c(Cl)cccc12	%	66.7
CN(C)CCCOc1nn(Cc2ccccc2)c2ccccc12 [Benzydamine hydrochloride, benzydamine hydrochloride, reference compound]	%	35

====

- Tested on: male dd mice
- Test: Anticonvulsant activity: maximal electroshock convulsion test
- Type: in vivo
- Measurement Context: Mus musculus, po, 1 h; 300 mg/kg p.o., 60 min after administration; read-out: Maximal electroshock convulsion test, inhibition ratio
Where a name gives a salt, the structure may show the parent alone.

Compound	responders at 300 mg/kg (%)
Cc1ccc2oc(C(=O)N(C)C)c(C)c2c1 [Compound (E)]	57.1
COc1cc(C)nc(-n2nc(C)cc2OC)n1 [Mepirizole, mepirizole, reference compound]	100
COc1ccc2oc(C(=O)N(C)C)c(C)c2c1	100
CN(C)CCCOc1nn(Cc2ccccc2)c2ccccc12 [Benzydamine hydrochloride, benzydamine hydrochloride, reference compound]	100
